Reported inhibition values for a set of molecules
# TARGET_DESC: Serine/threonine-protein kinase Nek2 (Homo sapiens);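 note: mean inhibition value from the GSK PKIS kinase screening panel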
# COND: at 0.1 µM
Give the quantity in %, number only.

Cc1ccc(NC(=O)c2ccoc2)cc1-c1ccc(C(=O)NCC2CC2)cc1	3.49
COc1cc2ncn(-c3cc(OCCc4ccccc4)c(C(N)=O)s3)c2cc1OC	2.3

Task item: Query: inhibition; subject: CCN(CC)Cc1ccc(Nc2nccc(-c3cnn4ncccc34)n2)cc1
Reply: 4.07

Task item: Similarly, C/C(Nc1ccc(S(N)(=O)=O)cc1)=C1/C(=O)Nc2ccccc21 ?
Reply: -0.14

Task item: How about C#Cc1cccc(Nc2ncnc3ccc(OCCCCNCCS(C)(=O)=O)cc23)c1 ?
Reply: 5.28

Task item: Also check CN(C)CCCNc1nccc(-c2c(-c3ccc(F)cc3)nn3cc(C(F)(F)F)ccc23)n1
Reply: 1.87

* * *

Recorded measurements of inhibition, one per entry
# TARGET_DESC: Protein kinase C eta type (Homo sapiens);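 note: values are the mean percent inhibition of PKC-eta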
# COND: at 0.1 µM
Number in %, nothing else.

O=C1Nc2ccccc2/C1=C/Nc1ccc(-n2cncn2)cc1	8.55
COC(=O)Nc1nc2ccc(Sc3ccc(NC(=O)Nc4cc(C(F)(F)F)ccc4F)cc3)cc2[nH]1	-1.46
CN(c1ccc(NC(=O)Nc2c(Cl)cccc2Cl)cc1)c1ccnc(Nc2cccc(CS(C)(=O)=O)c2)n1	1.33
COc1cc(Nc2ncc3c(C)nc(-c4cccc(C(F)(F)F)c4)n3n2)cc(OC)c1OC	6.38
COc1ccc2cc(-c3c(-c4ccncc4)nc(-c4ccc(S(C)(=O)=O)cc4C)n3C)ccc2c1	7.27
COc1ccc2ncn(-c3cc(O[C@H](C)c4ccccc4Cl)c(C(N)=O)s3)c2c1	5.09
O=C(Nc1n[nH]c2cc(-c3ccccc3)ccc12)C1CC1	2.72
COc1cc(N2CCN(C(C)C)CC2)ccc1Nc1nc(Nc2ccc(F)cc2C(=O)NC[C@@H](O)CO)c2cc[nH]c2n1	4.05

Switching to the query record.
Task item: # get_value(readout='inhibition', item= C#Cc1cccc(Nc2ncnc3ccc(OCCCCNCCS(C)(=O)=O)cc23)c1 )
Reply: 0.97

* * *

# TARGET_DESC: Serine/threonine-protein kinase DCLK2 (Homo sapiens) (UniProt Q8N568);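 note: reported value is the mean percent inhibition of DCAMKL2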
# Sequence (Q8N568 whole entry): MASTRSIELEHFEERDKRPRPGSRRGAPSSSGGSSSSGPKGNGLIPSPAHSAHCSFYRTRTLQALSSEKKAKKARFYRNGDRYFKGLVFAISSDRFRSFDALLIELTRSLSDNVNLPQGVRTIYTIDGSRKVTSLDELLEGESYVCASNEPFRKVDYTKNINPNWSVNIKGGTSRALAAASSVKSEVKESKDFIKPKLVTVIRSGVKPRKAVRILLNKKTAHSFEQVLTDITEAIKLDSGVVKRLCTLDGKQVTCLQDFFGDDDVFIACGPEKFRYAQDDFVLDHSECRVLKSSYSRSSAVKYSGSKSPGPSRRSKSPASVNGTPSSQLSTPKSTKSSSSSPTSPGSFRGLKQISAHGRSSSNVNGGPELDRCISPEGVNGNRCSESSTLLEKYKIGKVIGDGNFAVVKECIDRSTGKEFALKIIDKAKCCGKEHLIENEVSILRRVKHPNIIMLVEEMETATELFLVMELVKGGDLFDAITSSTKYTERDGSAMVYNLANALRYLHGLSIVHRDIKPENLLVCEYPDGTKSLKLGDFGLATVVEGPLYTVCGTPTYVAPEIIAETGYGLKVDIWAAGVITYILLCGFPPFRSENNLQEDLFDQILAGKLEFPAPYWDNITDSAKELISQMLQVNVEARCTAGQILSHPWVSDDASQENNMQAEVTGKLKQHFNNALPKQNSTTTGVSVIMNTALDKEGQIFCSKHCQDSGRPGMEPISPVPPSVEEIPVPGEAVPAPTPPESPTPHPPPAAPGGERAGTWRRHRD
# COND: at 0.1 µM
MEASURED_QUANTITY: inhibition (%)
Could you give me the number in %? Just the number is fine.

Task item: Param item = N#Cc1ccc(Oc2nccc(-c3c(-c4ccc(F)cc4)ncn3C3CCNCC3)n2)cc1 ; retrieve measured inhibition.
Reply: 1.3

Task item: Can you check C/C(Nc1ccc(S(N)(=O)=O)cc1)=C1/C(=O)Nc2ccccc21 next?
Reply: 4.83

Task item: Same read-out for COc1cc(Nc2ncc3c(C)nc(-c4cccc(C(F)(F)F)c4)n3n2)cc(OC)c1OC ?
Reply: 0.76

Task item: Next record, please: CN1CCN(CCCNc2nc3ccc(Oc4ccc(NC(=O)Nc5cc(C(F)(F)F)ccc5F)cc4)cc3[nH]2)CC1
Reply: -6.99

Task item: Please answer likewise for COc1cc(N2CCN(C(C)C)CC2)ccc1Nc1nc(Nc2ccc(F)cc2C(=O)NC[C@@H](O)CO)c2cc[nH]c2n1
Reply: 2.24

Task item: Then NC(=O)c1ccc(Oc2nccc(-c3c(-c4ccc(F)cc4)ncn3C3CCNCC3)n2)cc1 ?
Reply: 0.57

Task item: Now the compound CCS(=O)(=O)c1ccc(OC)c(Nc2ncc(-c3ccccc3Cl)o2)c1
Reply: -0.26

Task item: // same read-out, input: CN(c1ccc(NC(=O)Nc2c(Cl)cccc2Cl)cc1)c1ccnc(Nc2cccc(CS(C)(=O)=O)c2)n1
Reply: 3.64

This collection of values is drawn from ChEMBL document CHEMBL1961873.
